MIC values for the compounds below.
System: Ser. marcescens, 10100
Test: antibacterial activity (MIC), standard method of the Japan Society of Chemotherapy
Assay type: cell-based
Value expressed in µg/mL; do not type the unit.

Answered examples (3):
>  <Compound>
COc1c(N2CCC(C(N)C3CC3)C2)c(F)cc2c(=O)c(C(=O)O)cn(C3CC3F)c12 (stereo not shown)

>  <Experimental readout>
MIC

>  <Recorded result>
0.1

$$$$
>  <Compound>
Nc1c(F)c(N2CCC(C(N)C3CC3)C2)c(F)c2c1c(=O)c(C(=O)O)cn2C1CC1F (stereo not shown)

>  <Experimental readout>
MIC

>  <Recorded result>
0.025

$$$$
>  <Compound>
Cc1c(N2CCC(C(N)C3CC3)C2)c(F)c(N)c2c(=O)c(C(=O)O)cn(C3CC3F)c12 (stereo not shown)

>  <Experimental readout>
MIC

>  <Recorded result>
0.05

$$$$

Return MIC for the following compound: COc1c(N2CCC(C(N)C3CC3)C2)ccc2c(=O)c(C(=O)O)cn(C3CC3)c12 (stereo not shown)
0.2
